# Target Or Test System: human plasma kallikrein (PK) (human, UniProt P03952 20-638); note: test concentration or dose not given here
# Sequence (P03952 20-638 limits assumed): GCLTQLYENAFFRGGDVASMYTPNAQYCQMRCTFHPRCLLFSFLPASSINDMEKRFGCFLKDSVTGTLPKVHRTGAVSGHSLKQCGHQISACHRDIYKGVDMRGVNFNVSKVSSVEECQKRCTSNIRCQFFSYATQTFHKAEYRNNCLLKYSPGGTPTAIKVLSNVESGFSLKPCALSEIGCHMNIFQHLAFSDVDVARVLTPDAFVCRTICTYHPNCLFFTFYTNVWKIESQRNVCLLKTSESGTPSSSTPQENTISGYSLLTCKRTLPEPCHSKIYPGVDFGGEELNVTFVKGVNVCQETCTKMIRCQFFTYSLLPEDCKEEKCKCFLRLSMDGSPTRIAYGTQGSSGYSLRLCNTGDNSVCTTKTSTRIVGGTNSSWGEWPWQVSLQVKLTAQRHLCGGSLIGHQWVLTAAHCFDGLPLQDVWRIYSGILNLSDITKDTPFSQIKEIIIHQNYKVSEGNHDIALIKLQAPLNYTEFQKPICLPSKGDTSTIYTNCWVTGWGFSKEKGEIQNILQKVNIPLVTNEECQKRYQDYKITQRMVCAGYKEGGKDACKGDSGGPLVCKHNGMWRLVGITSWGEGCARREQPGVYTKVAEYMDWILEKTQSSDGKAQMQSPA
# Test Protocol: cell-based or functional assay
Measured Attribute: % Inhibition (%)
Write the answer as a number in %, unit excluded.

Binder	Result Units	% Inhibition
AATG1 (other, human, mature) HHHHHHEDPQGDAAQKTDTSHHDQDHPTFNKITPNLAEFAFSLYRQLAHQSNSTNIFFSPVSIATAFAMLSLGTKADTHDEILEGLNFNLTEIPEAQIHEGFQELLRTLNQPDSQLQLTTGNGLFLSEGLKLVDKFLEDVKKLYHSEAFTVNFGDTEEAKKQINDYVEKGTQGKIVDLVKELDRDTVFALVNYIFFKGKWERPFEVKDTEEEDFHVDQVTTVKVPMMKRLGMFNIQHCKKLSSWVLLMKYLGNATAIFFLPDEGKLQHLENELTHDIITKFLENEDRRSASLHLPKLSITGTYDLKSVLGQLGITKVFSNGADLSGVTEEAPLKLSKAVHKAVLTIDEKGTEAAGAMFLEGSLRSIPPEVKFNKPFVFLMIEQNTKSPLFMGKVVNPTQK	%	100

Input line: Which % Inhibition value belongs to AATG1g (other, human, mature) HHHHHHEDPQGDAAQKTDTSHHDQDHPTFNKITPNLAEFAFSLYRQLAHQSNSTNIFFSPVSIATAFAMLSLGTKADTHDEILEGLNFNLTEIPEAQIHEGFQELLRTLNQPDSQLQLTTGNGLFLSEGLKLVDKFLEDVKKLYHSEAFTVNFGDTEEAKKQINDYVEKGTQGKIVDLVKELDRDTVFALVNYIFFKGKWERPFEVKDTEEEDFHVDQVTTVKVPMMKRLGMFNIQHCKKLSSWVLLMKYLGNATAIFFLPDEGKLQHLENELTHDIITKFLENEDRRSASLHLPKLSITGTYDLKSVLGQLGITKVFSNGADLSGVTEEAPLKLSKAVHKAVLTIDEKGTEAAGAMFLEGSLRGIPPEVKFNKPFVFLMIEQNTKSPLFMGKVVNPTQK ?
Output line: 100
